Tested on: primary lymphoblasts from pediatric patients with acute lymphoblastic leukemia
Procedure Details: Resazurin cytotoxicity assay in primary lymphoblasts
Assay type: cell-based
Cond: Homo sapiens, 24 h, patient code 3; 24 h; read-out: IC50 of cytotoxic effect

- Molecule: "CCCCCCNCC(O)c1ccc(OCc2ccccc2)cc1 (stereo not drawn) [10S-E2]"
  Tested System: "primary lymphoblasts from pediatric patients with acute lymphoblastic leukemia"
  Measure Unit: "µM"
  IC50: 40.9

----------
Tested System: GR (Homo sapiens)
Construct: endogenous in cells; host or cells: K562
Sequence (P04150 whole entry): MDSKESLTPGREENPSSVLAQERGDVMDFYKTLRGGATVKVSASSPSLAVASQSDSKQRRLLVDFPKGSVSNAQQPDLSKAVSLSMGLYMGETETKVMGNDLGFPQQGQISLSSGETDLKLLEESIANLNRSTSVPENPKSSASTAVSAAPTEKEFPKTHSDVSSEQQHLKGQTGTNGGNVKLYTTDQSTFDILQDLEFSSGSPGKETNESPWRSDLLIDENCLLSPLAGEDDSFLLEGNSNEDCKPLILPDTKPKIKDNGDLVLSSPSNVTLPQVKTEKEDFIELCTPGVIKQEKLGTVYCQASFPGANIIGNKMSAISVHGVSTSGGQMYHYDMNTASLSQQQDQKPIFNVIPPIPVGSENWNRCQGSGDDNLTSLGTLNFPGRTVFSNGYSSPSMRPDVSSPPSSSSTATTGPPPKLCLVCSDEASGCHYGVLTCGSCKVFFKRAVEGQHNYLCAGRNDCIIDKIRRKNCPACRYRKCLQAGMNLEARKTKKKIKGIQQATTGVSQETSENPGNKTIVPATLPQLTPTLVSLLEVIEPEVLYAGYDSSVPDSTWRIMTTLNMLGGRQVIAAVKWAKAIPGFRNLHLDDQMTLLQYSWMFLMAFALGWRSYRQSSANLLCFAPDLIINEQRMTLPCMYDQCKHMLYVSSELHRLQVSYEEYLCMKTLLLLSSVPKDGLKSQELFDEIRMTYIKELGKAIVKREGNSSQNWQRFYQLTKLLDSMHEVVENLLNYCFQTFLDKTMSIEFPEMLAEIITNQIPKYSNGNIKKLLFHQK
Procedure Details: GR radioligand binding assay, competition with [3H]Dex in K562 cells
Cond: K562 cells, 0.5 µM [3H]Dex, 90 min, n = 3
Recorded Endpoint: IC50 (nM)

- Molecule: "CNCC(Cl)c1ccc(OC(C)=O)cc1 (stereo not shown) [CpdA, reference compound]"
  Recorded Endpoint: "IC50"
  Measure Unit: "nM"
  Measured Value: 2840

----------
# reported IC50; entries follow
Tested System: GR (Homo sapiens)
Construct: endogenous in cells; host or cells: K562
Procedure Details: GR radioligand binding assay, competition with [3H]Dex in K562 cells
Recorded Endpoint: IC50 (nM)

- Molecule: "CCCCCCNCC(O)c1ccc(OC)cc1 (stereo not shown)"
  Measured Value: 3210
- Molecule: "CCCCCCNCC(O)c1ccc(OCc2ccccc2)cc1 (stereo not drawn) [10S-E2]"
  Measured Value: 560
- Molecule: "OCCNCC(O)c1ccc(OCc2ccccc2)cc1 (stereo not shown)"
  Measured Value: 80
- Molecule: "CCCCCCNCC(O)c1ccc([N+](=O)[O-])cc1 (stereo not drawn) [13S-G2, 2-(hexylamino)-1-(4-nitrophenyl)ethanol]"
  Measured Value: 690

----------
Tested on: primary lymphoblasts from pediatric patients with acute lymphoblastic leukemia
Procedure Details: Resazurin cytotoxicity assay in primary lymphoblasts
Assay type: cell-based
Cond: Homo sapiens, 24 h, patient code 21; 24 h; read-out: IC50 of cytotoxic effect

- Compound: "CCCCCCNCC(O)c1ccc(OCc2ccccc2)cc1 (stereo not drawn) [10S-E2]"
  IC50 / µM: 49.4

----------
System: primary lymphoblasts from pediatric patients with acute lymphoblastic leukemia
Procedure Details: Resazurin cytotoxicity assay in primary lymphoblasts
Type: cell-based
Cond: Homo sapiens, 24 h, patient code 25; 24 h; read-out: IC50 of cytotoxic effect
Description: Peripheral blood samples were collected from 1–10-year-old pediatric patients with newly diagnosed ALL in the acute phase of the disease or from adult healthy volunteers at N.N. Blokhin National Research Center of Oncology. […] Isolated PBMCs were seeded into 96-well plates (2 × 10^6 cells/well) and treated with 10S-E2 at a wide range of concentrations (2–200 µM). […] Fluorescence intensity was evaluated using a Fluoroskan FL microplate fluorimeter (“Thermo Scientific”, Waltham, MA, USA). […]

- Compound: "CCCCCCNCC(O)c1ccc(OCc2ccccc2)cc1 (stereo not drawn) [10S-E2]"
  Tested System: "primary lymphoblasts from pediatric patients with acute lymphoblastic leukemia"
  Measure Unit: "µM"
  IC50: 80.3

Where these numbers come from: paper PMC12691742
